As shown below, each of these molecules has a reported zone of inhibition at 30 µg/disc value.
- System: Pseudomonas aeruginosa
- experiment_description: Antibacterial activity against Pseudomonas aeruginosa KB367 expressing IMP-1 assessed as inhibition of bacterial growth at 30 ug in presence of meropenem incubated overnight by paper disk method
- Assay type: functional
- condition_summary: read-out: IZ
Return type: number; implicit unit mm.

{"compound_smiles": "CCCCC(C(=O)N1CCCCC1)=C(C(=O)O)c1ccc(O)c(O)c1", "system": "Pseudomonas aeruginosa", "unit_abbreviation": "mm", "zone of inhibition at 30 µg/disc": 13}
{"compound_smiles": "CC/C=C/C1=C(CCC(=O)OC)C(=O)OC1=O", "system": "Pseudomonas aeruginosa", "unit_abbreviation": "mm", "zone of inhibition at 30 µg/disc": 16}
{"compound_smiles": "CCCCC1=C(c2ccc(O)c(O)c2)C(=O)OC1=O", "system": "Pseudomonas aeruginosa", "unit_abbreviation": "mm", "zone of inhibition at 30 µg/disc": 14}
{"compound_smiles": "CC/C=C/C(C(=O)[O-])=C(\\CCC)C(=O)[O-].[Na+].[Na+]", "system": "Pseudomonas aeruginosa", "unit_abbreviation": "mm", "zone of inhibition at 30 µg/disc": 19}
{"compound_smiles": "CCCC/C(C(=O)[O-])=C(/C(=O)[O-])c1ccc(O)c(O)c1.[Na+].[Na+]", "system": "Pseudomonas aeruginosa", "unit_abbreviation": "mm", "zone of inhibition at 30 µg/disc": 18}

Identify the reported zone of inhibition at 30 µg/disc for the following entry. CC/C=C/C1=C(c2ccc(O)c(O)c2)C(=O)OC1=O 14

Identify the reported zone of inhibition at 30 µg/disc for the following entry. CC/C=C/C1=C(CCC)C(=O)OC1=O 10

====

- experiment_description: Inhibition of bacterial Metallo-beta-lactamase IMP-1 using nitrocefin as substrate pre-incubated for 15 mins followed by substrate addition by microplate reader
- Parameters: species or system Bacteria
One threshold, 0.6 µg/mL, splits the recorded IC50 values: lower ones are criterion met, equal or higher ones are criterion not met.

{"compound_smiles": "CC/C=C/C1=C(c2ccc(OCOC)c(OCOC)c2)C(=O)OC1=O", "label": "criterion not met"}

// switching to the query compound
Would you kindly verify if IC50 of CC/C=C/C1=C(CCC(=O)OC)C(=O)OC1=O is strictly less than 0.6 µg/mL? criterion not met

====

- experiment_description: Inhibition of bacterial Metallo-beta-lactamase IMP-1 using nitrocefin as substrate pre-incubated for 15 mins followed by substrate addition by microplate reader
- Parameters: species or system Bacteria
As shown below, each of these compounds has a reported log10 IC50 value.
Hello, just confirming the data are log10 of IC50 with units of µg/mL.

Sample answers from the record:
{"compound_smiles": "CC/C=C/C1=C(CCCOC(C)=O)C(=O)OC1=O", "log10 IC50": 0.77}
{"compound_smiles": "CC/C=C/C1=C(CCC)C(=O)OC1=O", "log10 IC50": 0.48}
{"compound_smiles": "CC/C=C/C1=C(c2ccc(O)c(O)c2)C(=O)OC1=O", "log10 IC50": 0.57}
{"compound_smiles": "CC/C=C/C1=C(CCC(=O)O)C(=O)OC1=O", "log10 IC50": 1.83}

Query compound follows.
Identify the reported log10 IC50 for the following entry. CCCCC1=C(c2ccc(O)c(O)c2)C(=O)OC1=O 0.16

Source of measurements: ChEMBL document CHEMBL5236661
